Format: physicochemical
MEASUREMENT_CONDITIONS: pH 7.4
*1 amine or outer side, *2 acyl side, *3 side chain or, on linkers, in order; H or OH if unused. Where a SMILES comes first, the peptide text is derived from it. Bridges are numbered along the chain shown (N, C = ends). [ ]: non-standard residue; d: D form. The star is where a group is joined. NODAGA = O=C(O)CN1CCN(CC(=O)O)CCN(C(CCC(=O)*)C(=O)O)CC1; X1 = NC(=O)Nc1ccc(CC(N[*:1])C(=O)[*:2])cc1; Phe(4-Cl) = N[CH](Cc1ccc(Cl)cc1)C(=O)O
ASSAY_READOUT: logD

• CC(O)C1NC(=O)C(CCCCN)NC(=O)C(Cc2ccc(NC(N)=O)cc2)NC(=O)C(Cc2ccc(O)cc2)NC(=O)C(NC(=O)C(Cc2ccc(Cl)cc2)NC(=O)CCC(C(=O)O)N2CCN(CC(=O)O)CCN(CC(=O)O)CC2)CSSCC(C(=O)NC(Cc2ccc(O)cc2)C(N)=O)NC1=O (stereo not shown) [[^61Cu]Cu-NODAGA-LM3, metal not drawn] ({NODAGA}-[Phe(4-Cl)]CY[X1]KTCY-NH2; disulfide 2-7; configuration not given here) = -2.95

Numbers sourced from patent US20260151517A1.
